# maps each entry to its Emax
# TARGET_UNDER_TEST: FPR1 (Homo sapiens)
# Sequence (P21462 whole entry): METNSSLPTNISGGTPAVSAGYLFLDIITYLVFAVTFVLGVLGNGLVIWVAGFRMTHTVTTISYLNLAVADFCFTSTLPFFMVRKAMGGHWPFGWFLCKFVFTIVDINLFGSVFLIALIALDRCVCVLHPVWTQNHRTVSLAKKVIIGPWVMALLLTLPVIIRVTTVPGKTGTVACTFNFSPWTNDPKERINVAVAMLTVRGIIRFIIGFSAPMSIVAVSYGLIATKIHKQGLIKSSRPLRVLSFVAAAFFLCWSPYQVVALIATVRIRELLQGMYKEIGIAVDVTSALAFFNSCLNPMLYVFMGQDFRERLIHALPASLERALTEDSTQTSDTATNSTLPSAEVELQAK
# MEASUREMENT_NOTES: Ca2+ flux assay in FPR1-HL60 cells
# Type: cell-based
# PROTOCOL_CONDITIONS: read-out: FPR1-HL60 Efficacy

Example cases with answers are listed next.
COMPOUND	REPORTED_RESULT
Cc1nn(CC(=O)Nc2ccc(Br)cc2)c(=O)c(N)c1C(=O)C=CN(C)C	120%
COc1cccc(Nc2c(C(=O)C3CCCC3)c(C)nn(CC(=O)Nc3ccc(Br)cc3)c2=O)c1	110%
COc1cccc(Nc2c(-c3ccn(C)n3)c(C)nn(CC(=O)Nc3ccc(Br)cc3)c2=O)c1 [Compound 27a]	130%

Pending compound:
Lookup result for CCC(=O)c1c(C)nn(CC(=O)Nc2ccc(Br)cc2)c(=O)c1Nc1cccc(OC)c1 ; measured Emax: 130%
